# Protocol Summary: Brain bioavailability assay in zebrafish (UPLC-HRMS of brain homogenate)
# Type: in vivo, Danio rerio
# Condition Set: both sexes, zebrafish (Danio rerio), in vivo, 1 mg/L; zebrafish brain after 20-min exposure; linear relationship assumed; mean ± SEM; read-out: Relative brain level per 1 mg/L compound
Test Readout: log10 of concentration at 20 min (log10 of the value in ng/g)
Heads up: the numbers are on a log10 scale; they represent concentration at 20 min in ng/g.

Compound	log10 of concentration at 20 min
CN1CCC[C@H]1c1cccnc1 [Nicotine, (–)-nicotine, reference compound]	2.85
CNCC/C=C/c1cccnc1	1.85

log10 of concentration at 20 min reported for this compound C1=CCC(c2cccnc2)NC1 (racemic) : 2.64

Item: c1cncc([C@@H]2CCCCN2)c1 | log10 of concentration at 20 min: 2.36

Lab book: log10 of concentration at 20 min of CN1CC=CC[C@H]1c1cccnc1 [Methylanatabine, (S)-N-methylanatabine] noted as 3.14

* * *

# Target Of Assay: α4β2 nAChRs (Homo sapiens, UniProt P17787+P43681)
# Sequence (P43681 29-627 limits assumed): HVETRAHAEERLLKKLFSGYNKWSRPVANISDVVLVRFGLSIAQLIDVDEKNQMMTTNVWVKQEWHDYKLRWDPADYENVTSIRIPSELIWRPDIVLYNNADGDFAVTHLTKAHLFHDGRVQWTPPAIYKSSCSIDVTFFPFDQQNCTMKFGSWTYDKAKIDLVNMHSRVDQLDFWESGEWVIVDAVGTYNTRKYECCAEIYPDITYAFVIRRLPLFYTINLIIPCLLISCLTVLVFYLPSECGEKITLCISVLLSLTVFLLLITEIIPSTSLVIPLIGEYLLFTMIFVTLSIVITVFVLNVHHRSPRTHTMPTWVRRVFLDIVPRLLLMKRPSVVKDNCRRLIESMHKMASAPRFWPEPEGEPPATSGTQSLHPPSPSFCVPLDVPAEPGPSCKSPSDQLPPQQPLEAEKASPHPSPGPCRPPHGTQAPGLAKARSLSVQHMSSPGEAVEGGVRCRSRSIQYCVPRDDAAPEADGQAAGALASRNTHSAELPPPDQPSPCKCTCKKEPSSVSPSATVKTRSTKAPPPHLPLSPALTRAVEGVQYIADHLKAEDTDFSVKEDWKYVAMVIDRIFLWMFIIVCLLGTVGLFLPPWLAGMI
# Sequence (P17787 26-502): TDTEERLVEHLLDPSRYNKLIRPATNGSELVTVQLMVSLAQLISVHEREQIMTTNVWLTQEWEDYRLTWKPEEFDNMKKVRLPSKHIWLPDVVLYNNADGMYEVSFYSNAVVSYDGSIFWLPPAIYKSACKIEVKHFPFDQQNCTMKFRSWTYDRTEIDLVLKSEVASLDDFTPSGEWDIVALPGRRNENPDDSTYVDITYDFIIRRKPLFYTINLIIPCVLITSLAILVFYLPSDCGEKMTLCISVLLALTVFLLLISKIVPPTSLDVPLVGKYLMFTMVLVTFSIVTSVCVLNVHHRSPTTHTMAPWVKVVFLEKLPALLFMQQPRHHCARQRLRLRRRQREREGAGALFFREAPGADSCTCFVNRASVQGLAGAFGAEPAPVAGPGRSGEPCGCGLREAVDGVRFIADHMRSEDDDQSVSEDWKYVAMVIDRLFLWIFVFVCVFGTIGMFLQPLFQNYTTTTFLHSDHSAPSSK
# Protocol Summary: In vitro α4β2 nAChR radioligand displacement binding assay
# Design: host or cells: SH-SY5Y cells (human recombinant), membrane preparation
# Condition Set: n = 3; read-out: α4β2 nAChR IC50 (binding)
Test Readout: pIC50
pIC50 (log units): -log10 of the concentration in mol/L.

Per the records, this compound ( CN1C(=O)CC[C@H]1c1cccnc1 [Cotinine, (–)-cotinine] ) has pIC50 equal to 5.00

* * *

We begin with a simple list: items and their reported Emax.
# Target Of Assay: α4β2 nAChRs (Homo sapiens, UniProt P17787+P43681)
# Protocol Summary: In vitro nAChR functional assay (automated patch-clamp, CHO cells)
# Type: cell-based
# Condition Set: CHO, read-out: % activation of α4β2 nAChR (normalized to nicotine)
Quick reminder: number only, in %, skip the unit.

Molecule	Target Of Assay	Emax / %
c1cncc([C@@H]2CCCCN2)c1 [Anabasine, ( +)-Anabasine]	α4β2 nAChRs (Homo sapiens, UniProt P17787+P43681)	7
CN1CC=CC[C@H]1c1cccnc1 [Methylanatabine, (S)-N-methylanatabine]	α4β2 nAChRs (Homo sapiens, UniProt P17787+P43681)	26
CNCC/C=C/c1cccnc1 [Metanicotine, metanicotine]	α4β2 nAChRs (Homo sapiens, UniProt P17787+P43681)	100
CN1C(=O)CC[C@H]1c1cccnc1 [Cotinine, (–)-cotinine]	α4β2 nAChRs (Homo sapiens, UniProt P17787+P43681)	59
C1=CCC(c2cccnc2)NC1 (racemic) [Anatabine, ( ±)-Anatabine]	α4β2 nAChRs (Homo sapiens, UniProt P17787+P43681)	80

// switching to the query molecule
// Emax lookup, molecule = O=C(c1ccc(Cl)o1)N1CC2CNCC2C1 (stereo not drawn) [AZD1446, reference compound] , result: 100

* * *

# Target Of Assay: α4β2 nAChRs (Homo sapiens, UniProt P17787+P43681)
# Protocol Summary: In vitro α4β2 nAChR radioligand displacement binding assay
# Set-up: host or cells: SH-SY5Y cells (human recombinant), membrane preparation
Test Readout: IC50 (nM)
Give just the number in nM; leave the unit off.

Note to self: IC50 recorded for CN1CC=CC[C@H]1c1cccnc1 [Methylanatabine, (S)-N-methylanatabine] was 891
